Each record here notes measured PET hydrolysis.
Assay: PET hydrolysis, aromatic products released after 48 h (umol product/mg enzyme); higher = more PET depolymerization activity
Settings: substrate: cryPow; 60 °C; pH 4.5

Polymer sequence	PET hydrolysis
DQIGQAPTASNITGNGSFATTSASISSTVSGFGGGRVYYPTAAGTYPVIAISPGFTATWSSLAWIGPRLSSWGFVVVGIETNSIYDQPASRGNQLLAALNWAVNSSPTAVRSHVDGSRRGVAGHSMGGGGTLEALAADTTGLVKAGVPLAPWNTDKTWNNVSEPVLIVGGQADTVAPVASHSIPFYNTLAGPKTYVELTGQSHFFPQTTNATASRALVAWFKRWVSQDSRFTPFTCGFSGVAVSDFRSNAC [ESM082]	< 3
ANPYERGPNPTQALLEARSGPFSVSSERAWRLGSDGFGGGTIYYPRENNTYGAVAISPGYTGTQASVAWLGERIASHGFVVITIDTNTTLDQPDSRADQLEAALDHMVDGASSTVRSRIDRNRLAVMGHSMGGGGTLRLASQRPDLKAAIPLTPWHLNKSWSNVQVPTLIIGADLDTIAPVLTHAEPFYNSIPTSTRKAYLELDGATHFAPNITNSTIGMYSVAWLKRFVDEDTRYTQFLCPGPRTGLFSDVEEYRSTCPF [TEP014]	< 3
VQIGPAPTKASLEASRGPFTVATTRLSANGHGGGTIYYPTNAGAKVGVIAIVPGYLSYQSSIEWWGPRLASHGFAVVTIDTLTIYDQPSSRSSQQLRALDQVVALGSKSTSPLYNKVDGSRTGVMGWSMGGGGSLISAQNRPSIKAAAPQAPWNTTSNFSSLTVPTLIFACQADVVAPILSHAVPFYNSMSRNPKQYLERTAGDHFCFNNANPTVGLKGVAWMKRFIDGDTRYTSFACSNPNALGFSSFRTERCS [ESM053]	< 3
ADNPYQRGPDPTRTSVAAVNGPFANTSVSVPTGYGFNGGRIYYPTDTSQGTFGAIAISPGYTALFSAELAWMGPWLASHGFVVIGIETNSRNDFDTARGTQLLAALDYLTQQSPVRDRVDPNRLAVSGHSMGGGGALSAAIRRSSLKAVVGIAPYSPSSNLANDRVPTMIFSGQADTVVTPSYATGLYNSLPATTESVYLEVAGADHGFMVGRSNPVMIRTMLPFVKMFIDNDTRYSQFLCPLLDSSGVVTYRSTCPLLPPAPTTPPPTGTPTPTPSSNPTTPPTTPPSTPTA [ESM061]	< 3
ADNPHQRGPNPTQASVAASRGTFATSETSVGGGNGFGGAKIYYPTDTSQGKFAALAVSPGYTATWAAEGAWMGHWLASFGFVIIGIDTISRTDWDVARGDQLLAALDYLTQRSSVRDRVDASRVGVMGHSMGGGGAISAGLKRPSLKVVIGNAPYSASQNLTNMRVPVALLAGQRDTTVTPATTNSYYNQVPATTEKMYLELTNAPHSFPTSNNSVMTRKVIPWMKIFLDQDTRYQQFLCPLLDNTGIRTYRSSCPLIGDPMPPADTYRLAGAASGKCADVEGRSQANGAKLLLWTCNGQTNQRWTQTATGELRVYDNPKCVEAGTSAQGTRVTINACNGGNSQKWTVNANGTVTNAVSGRCLDAAGTADNSPIVVNTCTGAGSQNWSKRS [TEP049]	< 3

###

Assay: PET hydrolysis, aromatic products released after 48 h (umol product/mg enzyme); higher = more PET depolymerization activity
Conditions: substrate: cryPow; 40 °C; pH 7.5

Polymer sequence	Censoring operator	PET hydrolysis
AASPYERGPDPTEQTITAERGPFQVATATVPANSASGFNRGTIYYPTDTSQGTFGAVAIIPGFIEPESTMSWYGPRLASQGFVVFTLEPFSVLNFPDDRANQLLAALDYLTGSSSVRSRVDASRLAVMGHSMGGGGTLRAAEMRPSLQAAIPLAPWHLHGDWRNVRVPTMIQAADNDFIAGVGNHAQPFYQNLTNAPEKAYLLFENYGHMSWISANTPIAKYSIAWLKRYVDDDTRYSKFLCPAPGAPSSTFQEYRHTCPD [DP044]	<	3
ANPYERGPAPTKASIEATTGYFATAKVTVAKSSVSGFGGGTIYYPTSTTSGTFGAIALVPGFTNVQSAVAWLGPRVASQGFVVFIIDTNSVYDSPDSRGTQLLAALDYLTNTSTVKSRVDATRLGVMGYSMGGGGALSATKTRTSIKASVPMAPYHSTKTWTTVKTPTLIVTGQSDTTAPPASHGLAFYNSLSTSIDKAYMELKGAGHSAPTSANTTIAKYSISWFKRFIDDDTRYDQFLCPNPTDTTISSYKSTCNYS [DP082]	=	100
MAAANPYQRGPDPTLASVAATNGPFATAQMTVPPGNGFNGGYIYYPTDTSLGTWGAVAIVPGYTALFKNEEAWMGPRLASFGFVVIGIETNSRTDFDTARGTQLLAALDYLTQKSAVRNRVDPGRLGVIGHSMGGGGALVAATQRPSLKAAVGLAPFKPSGNLANDRVPTMFIAGNRDTVVTPSYLDGLYGSLPAATKKAYVQINGADHLFATKPNTVEMRTLIPWLKIFLDNDTRYSQFLCPTLLDKTGVSMYRGTCPLI [TEP109]	=	65.5
ATPDHAATADHASAHHHAAYPVSQQTIPATDGTGFGAATLYAPQGTGRKTLGAIVVAPGLKGDQSDLAWLAQDLAGEGFIVLNMDTLGKYDLPNQRSYEMLAAAKYLATASSVKDQVDPADIGVVGYSLGGGGALQAAVEQHGLKAAVALMPYDFPAGTTDPYKPTESPTYPGITTPTLVITGQADTTAPAASMGKPAYDSIPASTPKQYLELRGADHLAARATTNGTVRDAVTNFLKVYLDGNSAYRKYVCPAPPTSAAISESASSCPR [ESM174]	<	3
MPPPDSGAAAHERVHAEPSDPATVGSAGGNPFARGPDPTLASVAAEFGPFATTQLSVPPGHGFNGGYVYYPTDASPTFGAVAIVPGYTALFADEEAWMGPRLASFGFVVIGIETNSREDWDRARGAQLLAALDYVTQHSTVRTRVDSSRLAVIGHSMGGGGAFAAATRRPSLKAVVGLAPYFPSGDLATVRVPTLIIGGQRDTTVTPSYLDDLYATLPTRTPSAYLMLADADHLFPTRPNPVEMRLLIPWLKIFVDRDTRYVRFLCPLADRSGIAQYRVTCPLVPPA [TEP003]	<	3
ADNPYQRGPDPTPASIAADHGPFATAQTTIPKGNGLGGGIVYYPTDTSQGTFGAIAIAPGYGTEWRWYGWLGPRLASFGFVVVGIETNSLSDYADARADQLLAALDWLVTSSPVRDRVDRTRLAVGGHSMGGGGALVAATRRPSLRSAVGMAPYVPDGILRGTSVPTILFGGQADTTVTPAYLASAYATIPATVPRAYPEIAGEGHGFAAGGGGGNSGAFARVMMVWLKVFVDADTRYPPFLCPTLSNTSGISKYQASCPLGPGGTIPPPDTSRLANANAGRCLDASGAGTANGTKVILWTCNHGANQQWNRT [ESM139]	=	3.5
ADQRGPDPTVQSIEAARGPFATSTSRVSSLVSGFGGGTIYYPTDTSQGRFGGVVIAPGYTAGESSIAWLGPRLASQGFVVFTIDTLTRVDQPASRGRQLLAAADYLTQRSDVADRVDPARLAVMGHSMGGGGTLEAAKSRPGLKAIIPLTPWNLDKTWPEITTPTLIFGAQNDSVASVVTHARPFYQSLPATTPRSYLELRGASHFAPNLSNTTIAKYSIAWLKRFVDDDQRYTQFLCPAPADTALSDVRTSCPF [TEP091]	=	17
DQVGQAPTADNITGNGSFATTSAAITNQTGFGGGTVYYPTADGTYPVVAIVPGFAATWSQISWLGPRVASWGFVVVGVDTTSVFDSPQQRGDEFLAALNWAANSAPASTRGKVDGTRRGVAGWSMGGGGTLEAMAKDTTLKAGVPLAPWDTTQDWSKIGKPVFIVGAQNDLIAPPASHAIPFYNSLAGPKSYLELAGADHFFPISANPTVSRAVVSWFKRFVSADDRFAPFTCGFAGAAVSAFRTTAC [TEP103]	=	43
AGFEKGPDPTTASVTADRGSYDIAQVDVPKGSGTGFADGTIYYPKSTADGTFGAVAVIPGFLEPKSAIDWYGPRLASQGFVVMTLDTTSVFDTPDSRGGQLLAALDYLTSKSTVKDRIDPNRLAVVGHSMGGGGTLSAAANRPNLKAAVALAPWHVSAPLTSVKTPTMIFGSDNDFIAPDGTFAKPFYDGISNAPEKAYVRLKNAGHMAYVFPDKRIAEYTLSWLKRYVDDDTRYTQFLCPGPTNESTIAAYKSTCPM [DP093]	<	3
DDGYQRGPDPTEESIEAPRGTFEIGMAVVTRASADGFGGGTVYYPTDTSEGTFGAVAVSPGYSSSQAAIAWLGPRLASQGFVVFTIDTLSTSDSPTRRGDQVLAALSFLGRTELADRIDPDRLAVMGHSMGGGGSLEAAKDYPALQAIVPMTPWSVDKTFPEVTAPTLVIGAEDDVVARPRSHAEPIYESLPADGDKAYLELRDASHSAPSAPNTLIARYSLSWLKRYVDDDERYQQFLCPPPAVDDEISEYRSTCA [DP089]	=	19
VPVVPAQQENPYQRGPDPTPESVEAPRGSFAIEKATIARGSVQGFGGGTIYYPTDTAEGTFGAVAISPGFTESQSAISWYGERLATQGFVVFTIDTNGGLDQPDSRADQLLAALDFLTGSSEVKDRIDASRLGVLGHSMGGGGSLSAAKKRPALQAAVPLAPWHTNSNWSDVTVPTLIVGAENDAVAPVGMHAEPFYAGLTKAPEKAYLELKGADHFVTNSPNTVIAKSTLSWLKRFIDDDTRYDQFLCPPPKPDNDISEYRDTCPN [DP051]	<	3
